- Test system: CMK
- Set-up: species or system AML cell lines (8); Primary HTS, single concentration about 10 uM, Cell Titer Glo viability; log10 luminescence, per cent inhibition relative to cycloheximide control
- Run parameters: 72 h, relative to cycloheximide control, log10 luminescence; inhibitor
Structures can show the parent of a compound that is named as a salt.
Entries and their CMK %inh values follow.
Quantity kind: CMK %inh (%)

{"Molecule": "COc1cc(N2CCN(C(C)C)CC2)ccc1Nc1nc(Nc2cccc3ncccc23)c2cc[nH]c2n1 [SJ000573300-1, U24088/12/1]", "Quantity kind": "CMK %inh", "Numeric readout": 79.69}
{"Molecule": "Fc1ccc(-c2ncn(CCCN3CCOCC3)c2-c2ccncc2)cc1 [SJ000573144-1, LDD-19018-277B]", "Quantity kind": "CMK %inh", "Numeric readout": 29.46}
{"Molecule": "Cn1cc(C2=C(c3cn(CCCN=C(N)N)c4ccccc34)C(=O)NC2=O)c2ccccc21 [SJ000581011-1]", "Quantity kind": "CMK %inh", "Numeric readout": -5.09}
{"Molecule": "COc1cccc(C2=C(c3cn(C)c4cc(F)ccc34)C(=O)NC2=O)c1 [SJ000581149-1]", "Quantity kind": "CMK %inh", "Numeric readout": -0.7568}
{"Molecule": "COc1ccc(-c2nn3ncccc3c2-c2ccnc(Nc3ccc(Cl)c(C(F)(F)F)c3)n2)cc1 [SJ000573073-1, U17838/183/2]", "Quantity kind": "CMK %inh", "Numeric readout": 3.073}
{"Molecule": "COc1ccc(N2Cc3cnc(Nc4ccccc4)nc3N([C@@H]3CC[C@@H](O)C3)C2=O)cc1 [SJ000581169-1]", "Quantity kind": "CMK %inh", "Numeric readout": 31.32}
{"Molecule": "Cc1ccc(C)c(C2=C(c3cn(C)c4ccccc34)C(=O)NC2=O)c1 [SJ000581152-1]", "Quantity kind": "CMK %inh", "Numeric readout": 4.497}
{"Molecule": "N=C(N)NCCN1CCCCCCC1 [SJ000285779-4, GUANETHIDINE SULFATE]", "Quantity kind": "CMK %inh", "Numeric readout": -2.691}

Source: paper PMC6522510
